Would you kindly list IC50 for each of these compounds?
Biological target: purified Na^+,K^+ -ATPase (Homo sapiens, UniProt P05023)
Construct: Na^+,K^+ -ATPase receptor purified according to Jorghensen; from tissue
Experiment: inhibition of the activity of the purified Na^+,K^+ -ATPase (hydrolysis of ^32 P-ATP)
Type: biochemical
# value in nM; strip the unit string

[ask] Given CN(C)CCCO[C@H]1CC[C@@]2(C)[C@H](CC[C@@H]3[C@@H]2CC[C@]2(C)[C@@H](C4=CC(=O)OC4)CC[C@]32O)C1 [Comp. I-b] , respond with its IC50.
[reply] 5010

[ask] Answer with reported IC50 of C[C@]12CC[C@H](OCCN3CCCC3)C[C@H]1CC[C@@H]1[C@@H]2CC[C@]2(C)[C@@H](C3=CC(=O)OC3)CC[C@]12O [Comp. I-a]
[reply] 251

[ask] Give the reported value of IC50 for this record: C[C@]12CC[C@H](SCC(O)CO)C[C@H]1CC[C@@H]1[C@@H]2CC[C@]2(C)[C@@H](C3=CC(=O)OC3)CC[C@]12O (stereo partly drawn) [Comp. I-s]
[reply] 631
